test system: human Factor XI mRNA; test: Dose-dependent inhibition and IC50 in HepG2 cells, electroporation (Example 15); type: cell-based; details: electroporation, 10,000.0 nM
In the oligonucleotide strings, read from the 5' end, every base follows the letter of its sugar. An asterisk marks phosphorothioate; unmarked linkages are phosphodiester. Other units and linkages are bracketed, terminal groups are in braces. A string of capitals states the bases alone. e = 2'-O-(2-methoxyethyl) (MOE); [5mC] = 5-methylcytosine; d = 2'-deoxy (DNA)

| Substance | percent inhibition of Factor XI mRNA / % |
| --- | --- |
| 445532 (antisense e[5mC]*eG*eG*e[5mC]*eA*dT*dT*dG*dG*dT*dG*d[5mC]*dA*e[5mC]*eA*eG*eT*eT) [compound 445532] | 70 |
| 416861 (antisense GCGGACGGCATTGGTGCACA; 5-10-5 gapmer, wing sugar chemistry not given here, further chemistry not given here) [compound 416861] | 80 |
| 445504 (antisense eG*eG*e[5mC]*eA*eT*eT*dG*dG*dT*dG*d[5mC]*dA*d[5mC]*dA*eG*eT*eT*eT*e[5mC]*eT) [compound 445504] | 68 |
| 416857 (antisense e[5mC]*eG*eG*e[5mC]*eA*dT*dT*dG*dG*dT*dG*d[5mC]*dA*d[5mC]*dA*eG*eT*eT*eT*e[5mC]) [compound 416857] | 72 |
| 416850 (antisense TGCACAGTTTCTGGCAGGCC; 5-10-5 gapmer, wing sugar chemistry not given here, further chemistry not given here) [compound 416850] | 73 |

* * *

tested on: human Factor XI mRNA; test: Dose-dependent inhibition in HepB3 cells, electroporation (Example 7); type: cell-based; conditions: 1111.11 nM, approx. 16 h
Output YES for percent inhibition of human Factor XI mRNA not less than 70%; output NO otherwise.

| Substance | Assigned Label |
| --- | --- |
| 416858 (antisense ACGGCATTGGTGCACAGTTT; 5-10-5 gapmer, wing sugar chemistry not given here, further chemistry not given here) [compound 416858] | NO |
| 416892 (antisense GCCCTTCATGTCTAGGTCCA; 3-14-3 chimeric gapmer, wing sugar chemistry not given here, further chemistry not given here) [compound 416892] | NO |
| 416864 (antisense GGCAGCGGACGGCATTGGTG; 5-10-5 gapmer, wing sugar chemistry not given here, further chemistry not given here) [compound 416864] | NO |
| 416850 (antisense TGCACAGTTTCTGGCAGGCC; 5-10-5 gapmer, wing sugar chemistry not given here, further chemistry not given here) [compound 416850] | YES |
| 416999 (antisense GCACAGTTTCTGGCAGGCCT; 2-13-5 gapmer, wing sugar chemistry not given here, further chemistry not given here) [compound 416999] | YES |

* * *

system: Factor XI protein; assay: Cynomolgus monkeys: plasma Factor XI protein ELISA (Example 30); assay type: in vivo; conditions: 25 mg/kg s.c.; plasma ELISA; Day 31
In the oligonucleotide strings, read from the 5' end, every base follows the letter of its sugar. An asterisk marks phosphorothioate; unmarked linkages are phosphodiester. Other units and linkages are bracketed, terminal groups are in braces. A string of capitals states the bases alone. e = 2'-O-(2-methoxyethyl) (MOE); [5mC] = 5-methylcytosine; d = 2'-deoxy (DNA)
Reported Metric: Inhibition of Factor XI protein relative to the PBS control (%)

| Substance | Unit | Measured |
| --- | --- | --- |
| 449710 (antisense e[5mC]*eA*e[5mC]*dA*dG*dT*dT*dT*d[5mC]*dT*dG*dG*d[5mC]*eA*eG*eG) [compound 449710] | % | 25 |
| 449711 (antisense eA*e[5mC]*dA*dG*dT*dT*dT*d[5mC]*dT*dG*dG*d[5mC]*eA*eG) [compound 449711] | % | 9 |
| 416850 (antisense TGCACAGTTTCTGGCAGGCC; 5-10-5 gapmer, wing sugar chemistry not given here, further chemistry not given here) [compound 416850] | % | 52 |
| 445522 (antisense eG*e[5mC]*eA*e[5mC]*eA*dG*dT*dT*dT*d[5mC]*dT*dG*dG*e[5mC]*eA*eG*eG*e[5mC]) [compound 445522] | % | 70 |
| 449709 (antisense eG*e[5mC]*eA*e[5mC]*dA*dG*dT*dT*dT*d[5mC]*dT*dG*dG*d[5mC]*eA*eG*eG*e[5mC]) [compound 449709] | % | 45 |
| 449707 (antisense e[5mC]*eA*e[5mC]*eA*dG*dT*dT*dT*d[5mC]*dT*dG*dG*e[5mC]*eA*eG*eG) [compound 449707] | % | 29 |
